Data origin: ChEMBL document CHEMBL1157659

# protocolText: Renal clearance in dog as % compound recovered
# Type: ADME, organism-based, Canis lupus familiaris, Kidney
# assayContext: urine, read-out: Recovered in urine
measure: dose excreted

Tell me the measured dose excreted of CCCOCCn1c(=O)c(N2CCN(CCO)CC2)nc2cnc(-c3ccc(OC)nc3)cc21 [PF-03049423] , please. < 2%

----------
# Species: Homo sapiens
# protocolText: Plasma protein binding in human
# assayContext: read-out: PPB (converted)
measure: fraction unbound

Tell me the measured fraction unbound of CCCOCCn1c(=O)c(NCCNCCO)nc2cnc(-c3ccc(OC)nc3)cc21 , please. 0.212

----------
# protocolText: Elimination half life in healthy human
# Format: ADME, organism-based
# assayContext: in vivo, read-out: beta t1/2 (converted)
measure: half-life (h)
Entry rule: numbers only, all in h.

Tell me the measured half-life of CCCOCCn1c(=O)c(N2CCN(CCO)CC2)nc2cnc(-c3ccc(OC)nc3)cc21 , please. 17
